Recorded values, source patent US4404217A.

- tgt: β adrenergic receptors (β1) (Canis lupus familiaris, UniProt P79148)
- Construct: The dog is anaesthetized using sodium pentobarbital; from tissue; host or cells: whole anaesthetized dog (heart)
- Sequence (P79148 whole entry): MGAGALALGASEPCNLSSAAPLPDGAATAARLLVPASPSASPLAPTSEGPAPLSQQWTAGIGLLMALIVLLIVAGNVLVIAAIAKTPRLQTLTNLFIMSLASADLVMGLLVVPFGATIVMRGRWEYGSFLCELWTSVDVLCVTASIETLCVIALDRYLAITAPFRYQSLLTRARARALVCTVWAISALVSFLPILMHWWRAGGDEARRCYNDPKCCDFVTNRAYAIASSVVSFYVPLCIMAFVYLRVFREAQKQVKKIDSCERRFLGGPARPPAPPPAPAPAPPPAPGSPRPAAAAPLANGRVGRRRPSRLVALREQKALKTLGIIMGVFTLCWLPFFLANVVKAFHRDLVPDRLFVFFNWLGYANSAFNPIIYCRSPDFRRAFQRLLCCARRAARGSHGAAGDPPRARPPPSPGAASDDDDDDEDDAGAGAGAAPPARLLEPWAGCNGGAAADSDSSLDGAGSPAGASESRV
- assay.explanation: Antagonism of the effects of isoprenaline, tachycardia (β1), anaesthetized dog, IV
- Assay type: in vivo
- test.settings: dog, iv, read-out: ID50 ISOPRENALINE β1
result.type: ED50

Solved entries:
compound: Cc1cccc(OCC(O)CNC(C)Cc2c[nH]c3ccccc23)c1 (stereo not drawn)
tgt: β adrenergic receptors (β1) (Canis lupus familiaris, UniProt P79148)
ED50: 0.1 to 0.3 mg/kg
//
compound: CC(Cc1c[nH]c2ccccc12)NCC(O)COc1ccccc1Cl (stereo not drawn)
tgt: β adrenergic receptors (β1) (Canis lupus familiaris, UniProt P79148)
ED50: 0.3 mg/kg

Field: next compound
Exercise: Supply recorded ED50 for CC(Cc1c[nH]c2ccc(Cl)cc12)NCC(O)COc1ccc(CC(N)=O)cc1 (stereo not drawn) here.
Solution: 0.3 to 1 mg/kg

###

Catalogue of compounds with associated IC50
- Tested on: platelet aggregation
- assay.explanation: Anti-aggregating activity, BORN technique, plasma rich in platelets, ADP
- Assay type: cell-based, human
- test.settings: Homo sapiens, Platelet, read-out: concentration for inhibiting by 50% the maximum rate of aggregation

compound: CC(Cc1c[nH]c2ccccc12)NCC(O)COc1ccccc1C#N (stereo not drawn)
IC50: 45 to 100 µM

compound: Cc1ccccc1OCC(O)CNC(C)Cc1c[nH]c2ccccc12 (stereo not drawn)
IC50: 45 to 100 µM

Field: next compound
Exercise: Please tell me the measured IC50 for CC(Cc1c[nH]c2ccccc12)NCC(O)COc1cccc2[nH]ccc12 (stereo not drawn) ; system: platelet aggregation.
Solution: 45 to 100 µM

###

- tgt: β adrenergic receptors (β2) (Canis lupus familiaris)
- Construct: The dog is anaesthetized using sodium pentobarbital; from tissue; host or cells: whole anaesthetized dog (vasculature)
- Sequence (P54833 whole entry): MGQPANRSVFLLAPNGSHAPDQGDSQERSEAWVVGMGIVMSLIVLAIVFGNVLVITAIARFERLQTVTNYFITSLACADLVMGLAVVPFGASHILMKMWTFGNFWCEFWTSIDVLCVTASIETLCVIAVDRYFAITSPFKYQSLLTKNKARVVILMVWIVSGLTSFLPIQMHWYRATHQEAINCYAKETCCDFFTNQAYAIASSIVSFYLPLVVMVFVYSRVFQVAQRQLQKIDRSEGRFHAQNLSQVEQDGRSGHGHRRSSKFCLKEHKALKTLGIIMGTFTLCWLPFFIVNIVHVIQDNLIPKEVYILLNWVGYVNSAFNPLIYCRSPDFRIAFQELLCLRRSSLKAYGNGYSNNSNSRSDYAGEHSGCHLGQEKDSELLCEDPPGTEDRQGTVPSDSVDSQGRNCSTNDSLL
- assay.explanation: Antagonism of the effects of isoprenaline, hypotension (β2), anaesthetized dog, IV
- Format: in vivo
- test.settings: IV, 50% inhibition of isoprenaline hypotension, read-out: ID50 ISOPRENALINE β2
- Method: The dog is anaesthetized using sodium pentobarbital, administered by the IV route at a dose of 30 mg/kg. A cannula placed in the saphenous vein allows the intra-venous injections of the products. The animal is submitted to intubation and is allowed to breathe spontaneously. The cardiac frequency and the systemic arterial pressure are studied and the variations of these parameters are observed after intra-venous injection of the product to be tested. Each product is tested with increasing doses. […]
Catalogue of compounds with associated ED50

Solved entries:
compound: CC(Cc1c[nH]c2ccccc12)NCC(O)COc1ccccc1C(=O)c1ccccc1 (centres unmarked)
ED50: 0.1 mg/kg
//
compound: CCCC(=O)Nc1ccc(OCC(O)CNC(C)Cc2c[nH]c3ccccc23)c(C(C)=O)c1 (centres unmarked)
ED50: ≥ 3 mg/kg
//
compound: Cc1ccccc1OC[C@H](O)CN[C@H](CO)Cc1c[nH]c2ccccc12
ED50: 1 mg/kg
//
compound: Cc1ccccc1OC[C@@H](O)CN[C@@H](CO)Cc1c[nH]c2ccccc12
ED50: 0.3 to 1 mg/kg
//
compound: CC(Cc1c[nH]c2ccc(Cl)cc12)NCC(O)COc1ccc(CC(N)=O)cc1 (centres unmarked)
ED50: ≥ 3 mg/kg
//
compound: CC(Cc1c[nH]c2ccccc12)NCC(O)COc1cccc2[nH]ccc12 (centres unmarked)
ED50: 0.01 to 0.03 mg/kg
//
compound: Cc1ccccc1OCC(O)CNC(C)Cc1c[nH]c2ccccc12 (centres unmarked)
ED50: ≥ 0.3 mg/kg

Field: next compound
Exercise: Supply recorded ED50 for CC(Cc1c[nH]c2ccc(F)cc12)NCC(O)COc1ccccc1 (centres unmarked) here.
Solution: > 0.3 mg/kg
